# Experimental system: Glutamine--fructose-6-phosphate transaminase (isomerizing) (Saccharomyces cerevisiae (strain YJM789), UniProt A6ZZL3)
# Sequence (A6ZZL3 whole entry): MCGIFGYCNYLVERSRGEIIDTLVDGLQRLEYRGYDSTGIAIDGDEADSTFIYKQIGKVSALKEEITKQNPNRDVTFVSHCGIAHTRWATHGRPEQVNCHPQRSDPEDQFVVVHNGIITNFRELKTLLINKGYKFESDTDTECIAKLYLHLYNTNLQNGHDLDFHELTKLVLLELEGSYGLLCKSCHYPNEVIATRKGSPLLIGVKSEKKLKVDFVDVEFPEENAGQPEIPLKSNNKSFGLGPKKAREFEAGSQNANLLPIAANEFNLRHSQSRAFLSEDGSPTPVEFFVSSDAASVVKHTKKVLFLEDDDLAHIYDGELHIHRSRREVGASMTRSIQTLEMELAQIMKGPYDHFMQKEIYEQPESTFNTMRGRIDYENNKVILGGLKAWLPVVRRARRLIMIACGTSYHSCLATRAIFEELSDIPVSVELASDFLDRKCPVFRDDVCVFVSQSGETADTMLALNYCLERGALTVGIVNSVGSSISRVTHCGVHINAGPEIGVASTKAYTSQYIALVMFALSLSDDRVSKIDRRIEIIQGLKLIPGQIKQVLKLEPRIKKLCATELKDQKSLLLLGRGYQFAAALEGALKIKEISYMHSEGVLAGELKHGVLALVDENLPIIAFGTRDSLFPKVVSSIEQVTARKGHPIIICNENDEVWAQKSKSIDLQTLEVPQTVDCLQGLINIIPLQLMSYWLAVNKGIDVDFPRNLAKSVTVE
# Procedure text: Inhibition Assay
Metric name: IC50 (mM)

- Smiles data: "CC(=O)[C@@H]1O[C@H]1C(=O)NC[C@H](N)C(=O)O"
  IC50 [mM]: 7.35

P = CC(=O)C=CC(=O)NC[C@H](N)C(=O)O
Q = N[C@@H](CNC(=O)/C=C/C(=O)c1ccccc1)C(=O)O
R = N[C@@H](CNC(=O)[C@@H]1O[C@H]1C(=O)c1ccccc1)C(=O)O
Rank the 3 compounds: largest IC50 first, smallest last. Please respond with the labels ordered as the question requires.
P, R, Q
(P: 5.6 mM, R: 0.66 mM, Q: 0.27 mM)

====

# Experimental system: Glutamine--fructose-6-phosphate transaminase (isomerizing) (Saccharomyces cerevisiae (strain YJM789), UniProt A6ZZL3)
# Procedure text: Inhibition Assay
pKi: −log10 of the molar value.
Metric name: pKi

Below are worked cases with known answers.
- Smiles data: "CC(=O)C=CC(=O)NC[C@H](N)C(=O)O"
  pKi: 1.82
- Smiles data: "CC(=O)[C@@H]1O[C@H]1C(=O)NC[C@H](N)C(=O)O"
  pKi: 1.71

I = N[C@@H](CNC(=O)[C@@H]1O[C@H]1C(=O)c1ccccc1)C(=O)O
II = N[C@@H](CNC(=O)/C=C/C(=O)c1ccccc1)C(=O)O
Out of I and II , name the one with the higher pKi. // caller expects the label of the chosen entry
II
